System: CCRF-CEM
method summary: Cytotoxicity against human CEM cells
Type: cell-based
pIC50: −log10 of the molar value.
Classification field: enter TRUE for pIC50 values not below 6, FALSE for values below it.

Query: Record `O=C1/C(=C/c2ccc([N+](=O)[O-])cc2)CN(C(=O)c2ccc(OCCN3CCOCC3)cc2)C/C1=C\c1ccc([N+](=O)[O-])cc1` ; criterion: pIC50 no lower than 6. Met?
Result: TRUE

Query: Record `O=C1/C(=C/c2ccccc2)CN(C(=O)c2ccccc2)C/C1=C\c1ccccc1` ; criterion: pIC50 no lower than 6. Met?
Result: FALSE

Query: Record `O=C1/C(=C/c2ccccc2)CN(C(=O)c2ccc(OCCN3CCOCC3)cc2)C/C1=C\c1ccccc1` ; criterion: pIC50 no lower than 6. Met?
Result: FALSE

Query: Record `CCN(CC)CCOc1ccc(C(=O)O)cc1` ; criterion: pIC50 no lower than 6. Met?
Result: FALSE

###

Test system: CCRF-CEM
method summary: Cytotoxicity against human CEM cells
Type: cell-based
Threshold-based label: IC50 under 10 µM gives MET, IC50 not under 10 µM gives NOT MET.

Cl.O=C1/C(=C/c2ccc(Cl)cc2)CN(C(=O)c2ccc(OCCN3CCOCC3)cc2)C/C1=C\c1ccc(Cl)cc1 | MET

Query: For this compound, is IC50 lower than 10 µM? `CC[N+](C)(CC)CCOc1ccc(C(=O)N2C/C(=C\c3ccccc3)C(=O)/C(=C/c3ccccc3)C2)cc1`
Result: NOT MET

Query: For this compound, is IC50 lower than 10 µM? `CCN(CC)CCOc1ccc(C(=O)N2C/C(=C\c3ccc(Cl)cc3)C(=O)/C(=C/c3ccc(Cl)cc3)C2)cc1`
Result: NOT MET

Query: For this compound, is IC50 lower than 10 µM? `CCN(CC)CCOc1ccc(C(=O)N2C/C(=C\c3ccccc3)C(=O)/C(=C/c3ccccc3)C2)cc1`
Result: MET

Query: For this compound, is IC50 lower than 10 µM? `CC[N+](C)(CC)CCOc1ccc(C(=O)N2C/C(=C\c3ccc(Cl)cc3)C(=O)/C(=C/c3ccc(Cl)cc3)C2)cc1`
Result: NOT MET

Query: For this compound, is IC50 lower than 10 µM? `O=C1/C(=C/c2ccccc2)CN(C(=O)c2ccc(OCCN3CCCCC3)cc2)C/C1=C\c1ccccc1`
Result: MET

Query: For this compound, is IC50 lower than 10 µM? `COc1ccc(C(=O)N2C/C(=C\c3ccccc3)C(=O)/C(=C/c3ccccc3)C2)cc1`
Result: MET

###

Test system: CCRF-CEM
method summary: Cytotoxicity against human CEM cells
Assay type: cell-based
Measured pIC50 values are reported for all entries that follow.
Schema: pIC50 number; meaning minus log10 of the concentration expressed in molar units.

CCN(CC)CCOc1ccc(C(=O)N2C/C(=C\c3ccc([N+](=O)[O-])cc3)C(=O)/C(=C/c3ccc([N+](=O)[O-])cc3)C2)cc1 | 6.47
CN(C)CCOc1ccc(C(=O)N2C/C(=C\c3ccc([N+](=O)[O-])cc3)C(=O)/C(=C/c3ccc([N+](=O)[O-])cc3)C2)cc1 | 6.50
CC[N+](C)(CC)CCOc1ccc(C(=O)N2C/C(=C\c3ccc([N+](=O)[O-])cc3)C(=O)/C(=C/c3ccc([N+](=O)[O-])cc3)C2)cc1 | 4.41
Cc1ccc(/C=C2\CN(C(=O)c3ccc(OCCN(C)C)cc3)C/C(=C\c3ccc(C)cc3)C2=O)cc1 | 6.05
O=C1/C(=C/c2ccc([N+](=O)[O-])cc2)CN(C(=O)c2ccc(OCCN3CCCCC3)cc2)C/C1=C\c1ccc([N+](=O)[O-])cc1 | 6.50
CC[N+](C)(CC)CCOc1ccc(C(=O)N2C/C(=C\c3ccc(C)cc3)C(=O)/C(=C/c3ccc(C)cc3)C2)cc1 | 4.63

Next compound, pIC50 to be filled in.
Query: Give reported pIC50 value for `CN(C)CCOc1ccc(C(=O)N2C/C(=C\c3ccccc3)C(=O)/C(=C/c3ccccc3)C2)cc1`
Result: 5.91
